FYI, the data here is from ChEMBL document CHEMBL1641546.

Experiment: Clearance in monkey
Format: ADME, organism-based, Macaca mulatta
Conditions: rhesus monkey, in vivo
reported endpoint: clearance (mL/min/kg)
Answer with a number only, understood to be in mL/min/kg.

query: Name the recorded clearance for "C/C(=C\c1cc(F)c(OC[C@H](F)C2CC2)cc1F)C(=O)N[C@@H]1[C@H](O)[C@@H](O)[C@H]2OCO[C@H]2[C@@H]1O" .
result: 8.6

----------
System: Enterococcus faecium
Assay: Antibacterial activity against Enterococcus faecium 1022
Assay type: functional
Hi! Could you tag entries with MIC below 3 µg/mL as true, and those at or above as false? Much appreciated.

[[record]]
compound = "CCOc1cc(F)c(/C=C(\\C)C(=O)N[C@@H]2[C@H](O)[C@@H](O)[C@H]3OCO[C@H]3[C@@H]2O)cc1F"
target_or_system = "Enterococcus faecium"
assigned_category = "false"

[[record]]
compound = "C/C(=C\\c1cc(F)c(OCC2(F)CCC2)cc1F)C(=O)N[C@@H]1[C@H](O)[C@@H](O)[C@H]2OCO[C@H]2[C@@H]1O"
target_or_system = "Enterococcus faecium"
assigned_category = "false"

[[record]]
compound = "C/C(=C\\c1cc(F)c(OCC(C)F)cc1F)C(=O)N[C@@H]1[C@H](O)[C@@H](O)[C@H]2OCO[C@H]2[C@@H]1O (stereo not given in full)"
target_or_system = "Enterococcus faecium"
assigned_category = "false"

[[record]]
compound = "C/C(=C\\c1cc(F)c(OCCC(F)F)cc1F)C(=O)N[C@@H]1[C@H](O)[C@@H](O)[C@H]2OCO[C@H]2[C@@H]1O"
target_or_system = "Enterococcus faecium"
assigned_category = "false"

[[record]]
compound = "C/C(=C\\c1cc(F)c(OCCF)cc1F)C(=O)N[C@@H]1[C@H](O)[C@@H](O)[C@H]2OCO[C@H]2[C@@H]1O"
target_or_system = "Enterococcus faecium"
assigned_category = "false"

[[record]]
compound = "C/C(=C\\c1cc(F)c(OCC2CCC2)cc1F)C(=O)N[C@@H]1[C@H](O)[C@@H](O)[C@H]2OCO[C@H]2[C@@H]1O"
target_or_system = "Enterococcus faecium"
assigned_category = "false"


Here's the next entry for you.
query: Field: below-cutoff. Rule: recorded MIC strictly less than 3 µg/mL. Subject: "C/C(=C\c1cc(F)c(OCCO)cc1F)C(=O)N[C@@H]1[C@H](O)[C@@H](O)[C@H]2OCO[C@H]2[C@@H]1O"
result: false

----------
Assay: Half life in mouse
Type: ADME, organism-based
Conditions: in vivo
reported endpoint: half-life (h)
Answer with a number only, understood to be in h.

query: Name the recorded half-life for "C/C(=C\c1cc(F)c(OC[C@H](F)C2CC2)cc1F)C(=O)N[C@@H]1[C@H](O)[C@@H](O)[C@H]2OCO[C@H]2[C@@H]1O" .
result: 1.4

----------
Assay: Half life in monkey
Type: ADME, organism-based, Macaca mulatta
Settings: rhesus monkey, in vivo
reported endpoint: half-life (h)
Answer with a number only, understood to be in h.

query: Name the recorded half-life for "C/C(=C\c1cc(F)c(OC[C@H](F)C2CC2)cc1F)C(=O)N[C@@H]1[C@H](O)[C@@H](O)[C@H]2OCO[C@H]2[C@@H]1O" .
result: 1

----------
Assay: Oral bioavailability in rat at 10 mg/kg, po and 5 mg/kg, iv
Type: ADME, organism-based
Conditions: in vivo
reported endpoint: bioavailability (%)
Answer with a number only, understood to be in %.

query: Name the recorded bioavailability for "C/C(=C\c1cc(F)c(OC[C@H](F)C2CC2)cc1F)C(=O)N[C@@H]1[C@H](O)[C@@H](O)[C@H]2OCO[C@H]2[C@@H]1O" .
result: 56
